testTarget: T1, CD63 (UniProt P08962 2-238, limits assumed)
T1 construct: whole, on cells
methodDescription: flow cytometry on cells transfected with the target; signal over mock-transfected cells (background = 1.0)
I'd appreciate it if you could supply S:B Binding values for the items below.

// worked examples, S:B Binding included
| binder | observedMeasurement |
| --- | --- |
| Antibody of light chain E1 (E1chicken) paired with the heavy chain against CD63 (antibody, V domains shown, also called HC-CD63) VH: AVTLDESGGGLQTPGGALSLVCKASGFTFSDRGMHWVRQAPGKGLEWVAGIRSTGSFTLYGAAVKGRATISRDDGQSTLRLQLNNLRAEDTGTYYCAKSAGGYGCGRGWCGVDDIDAWGHGTEVIVSS VL: ALTQPSSVSANPGETVKITCSGSSGSGYYGWYQQKSPGSAPVTLIYDNDKRPSDIPSRFSGSKSGSTGTLTITGVQADDEAVYFCGSADNNYTGIFGAGTTLTVL | 31.8 S:B |
| Antibody of light chain D3 (D3chicken) paired with the heavy chain against CD63 (antibody, V domains shown, also called HC-CD63) VH: AVTLDESGGGLQTPGGALSLVCKASGFTFSDRGMHWVRQAPGKGLEWVAGIRSTGSFTLYGAAVKGRATISRDDGQSTLRLQLNNLRAEDTGTYYCAKSAGGYGCGRGWCGVDDIDAWGHGTEVIVSS VL: ALTQPSSVSANPGETVKITCSGDDRWYGWYQQKSPGSAPVTLIYSNDKRPSDIPSRFSGSKSGSTGTLTITGVQADDEAVYFCGSRDSSYAGIFGAGTTLTVL | 20.6 S:B |
| Antibody of common light chain C11 (C11chicken) paired with the heavy chain against CD63 (antibody, V domains shown, also called HC-CD63) VH: AVTLDESGGGLQTPGGALSLVCKASGFTFSDRGMHWVRQAPGKGLEWVAGIRSTGSFTLYGAAVKGRATISRDDGQSTLRLQLNNLRAEDTGTYYCAKSAGGYGCGRGWCGVDDIDAWGHGTEVIVSS VL: ALTQPSSVSANPGETVKITCSGGGSWYGSYYYGWYQQKSPGSAPVTLIYNNDKRPSDIPSRFSGSESGSTATLTITGVQAEDEAVYFCGGYDSTTTDMFGAGTTLTVL | 0.8 S:B |

Kindly consider the entry below.
INPUT: What value of S:B Binding has been recorded for this entry: Antibody of common light chain B9 (B9chicken) paired with the heavy chain against CD63 (antibody, V domains shown, also called HC-CD63) VH: AVTLDESGGGLQTPGGALSLVCKASGFTFSDRGMHWVRQAPGKGLEWVAGIRSTGSFTLYGAAVKGRATISRDDGQSTLRLQLNNLRAEDTGTYYCAKSAGGYGCGRGWCGVDDIDAWGHGTEVIVSS VL: ALTQPSSVSANPGETVKITCSGGGSSNYYGWYQQKSPGSAPVTLIYGTNKRPSDIPSRFSGSKSGSTGTLTITGVQADDEAVYFCGSADSSTNAGIFGAGTTLTVL
OUTPUT: 2.7 S:B
